# System: HCT-15 colon
# PROCEDURE_TEXT: NCI tumour cell line growth inhibition, 48 h
RECORDED_METRIC: GI50

Prompt line: Please give the measured GI50 for this compound: C=CC(=O)N1CC[C@H](n2nc(C#Cc3cc(OC)cc(OC)c3)c3c(N)ncnc32)C1
Response line: 5.53 µM

Prompt line: Same again, this time with Cn1cc(C2=C(c3cn(CCCCCO)c4ccccc34)C(=O)NC2=O)c2ccccc21
Response line: 2.57 µM

Prompt line: Same again, this time with CCCN(CCC)c1ccc(C=O)c(C)c1
Response line: 41.6 µM

----------
# Test system: SN12C renal
# PROCEDURE_TEXT: NCI tumour cell line growth inhibition, 48 h; in the data active means GI50 below about 0.43 µM; inactive means the rest
Choose one outcome from this list and give only that: TRUE (active), FALSE (inactive)

Here are 10 molecules together with their reported answers.
MOLECULE | LABEL
Cn1cc(C2=C(c3cn(CCCCCO)c4ccccc34)C(=O)NC2=O)c2ccccc21 | FALSE
CCCN(CCC)c1ccc(C=O)c(C)c1 | FALSE
CCCCCCCCCCCCCCCCN(CC)CC | FALSE
CC(=O)OCCCC#CC#Cc1cccc(=O)o1 | FALSE
CN(C)Cc1c(C(=O)NCCOc2ccc(C(=O)NO)cc2)oc2ccccc12 | FALSE
COc1ccc2nc3cccc([N+](=O)[O-])c3c(NC(C)CN(C)C)c2c1 (stereo not drawn) | FALSE
O=C1c2cc(F)ccc2-c2c1c1ccc([N+](=O)[O-])cc1c(=O)n2CCCBr | FALSE
COc1ccc(-c2[nH]nc(N)c2-c2cc(OC)c(OC)c(OC)c2)cc1 | TRUE
N#CC1=C(N)Oc2c(sc3c(Br)cccc23)C1c1ccc(Cl)cc1 (stereo not drawn) | FALSE
C=CC(=O)Nc1cccc(Oc2nc(Nc3ccc(N4CCN(C)CC4)cc3OC)ncc2Cl)c1 | FALSE

Prompt line: Which outcome was entered for the molecule COc1cc(CCNC(=O)OC(C)(C)C)c2c(c1OC)SSSSS2 in this test?
Response line: FALSE

Prompt line: Same again, this time with O=C1CC(N2C(=O)/C(=C/C(Cl)=C\c3ccc([N+](=O)[O-])cc3)SC2=S)C(=O)N1c1ccc(O)cc1 (stereo not drawn)
Response line: FALSE

Prompt line: Same again, this time with Cc1ccccc1C(C(=O)NC1CCCCC1)N(C(=O)CNc1ccc(C#N)cc1)c1cccc(F)c1 (stereo not drawn)
Response line: FALSE

Prompt line: Same again, this time with Cc1cccc(Cl)c1NC(=O)c1cnc(Nc2cc(N3CCOCC3)cc(S(C)(=O)=O)c2)s1
Response line: FALSE

Prompt line: Same again, this time with COC(=O)c1oc2c(C(=O)/C=C/c3ccc(OC)cc3)c(OCCN3CCOCC3)ccc2c1C
Response line: FALSE

Prompt line: Same again, this time with C=CC(=O)N1CC[C@H](n2nc(C#Cc3cc(OC)cc(OC)c3)c3c(N)ncnc32)C1
Response line: FALSE

Prompt line: Same again, this time with CCOC(=O)c1cc(NS(=O)(=O)c2ccc(C)cc2)cc(C(=O)OCC)c1
Response line: FALSE

Prompt line: Same again, this time with COc1ccc(Cn2cc3c(c2-c2cc(OC)c(OC)c(OC)c2)CCc2c(CO)noc2-3)cc1
Response line: FALSE

----------
# System: OVCAR-4 ovarian
# PROCEDURE_TEXT: NCI tumour cell line growth inhibition, 48 h; in the data active means GI50 below about 0.43 µM; inactive means the rest
Choose one outcome from this list and give only that: TRUE = active, FALSE = inactive

Prompt line: Which outcome was entered for the molecule C/C=C(\C)C(=O)O[C@H]1C=CC(=O)O[C@H]1COC(=O)[C@H](C)O in this test?
Response line: FALSE

Prompt line: Same again, this time with Cn1c(=O)c(Oc2ccc(F)cc2F)cc2cnc(NC3CCOCC3)nc21
Response line: FALSE

Prompt line: Same again, this time with COc1ccc(-c2[nH]nc(N)c2-c2cc(OC)c(OC)c(OC)c2)cc1
Response line: FALSE

Prompt line: Same again, this time with CN(C)CCS(=O)(=O)Nc1cc(-c2ccc3ncc(C#N)c(Nc4ccc(F)c(Cl)c4)c3c2)cnc1Cl
Response line: TRUE

Prompt line: Same again, this time with Oc1ccccc1/C=N\NC(=S)N/N=C/c1ccccc1O
Response line: FALSE

Prompt line: Same again, this time with N#CC1=C(N)Oc2c(sc3c(Br)cccc23)C1c1ccc(Cl)cc1 (centres undefined)
Response line: FALSE

Prompt line: Same again, this time with CN(C)CCOc1ccccc1NC1=C(Cl)C(=O)C(Nc2ccccc2OCCN(C)C)=C(Cl)C1=O
Response line: FALSE

Prompt line: Same again, this time with COc1ccc(NC(=O)c2ccc(NC3=C(Cl)C(=O)N(Cc4ccccc4)C3=O)cc2)c(OC)c1
Response line: FALSE
